The entries below are paired with their reported IC50.
System: Babesia divergens
protocol-notes: Antimicrobial activity against Babesia divergens 4201
Assay type: functional, organism-based
measured-quantity: IC50 (µg/mL)

compound	unit-tag	comparator	measured-number
C[C@@H]1CC[C@H]2[C@@H](C)C(=O)O[C@@H]3O[C@@]4(C)CC[C@@H]1[C@]32O4 [DEOXYARTEMISININ]	µg/mL	>	10
CC(C)(N)CNC(=O)CC1CC[C@]2(CC1)OC[C@]1(O2)C2CC3CC(C2)CC1C3 (stereo not given in full)	µg/mL	=	7.5
CC(C)(N)CNC(=O)C[C@H]1CC[C@]2(CC1)OO[C@]1(O2)C2CC3CC(C2)CC1C3 [OZ277]	µg/mL	>	10
O=C1C(O)=C([C@H]2CC[C@H](c3ccc(Cl)cc3)CC2)C(=O)c2ccccc21 [ATOVAQUONE]	µg/mL	=	0.0087
C[C@@H]1CC[C@H]2[C@@H](C)C(=O)O[C@@H]3O[C@@]4(C)CC[C@@H]1[C@]32OO4 [ARTEMISININ]	µg/mL	>	10
